- System: SKOV3
- test_summary: Primary qHTS to identify gynecologic anti-cancer compounds using libraries of approved drugs and bioactive compounds (AID 1345084); further: nearly all actives have a fitted effect of over 55% in size
- condition_parameters: Gynecologic cancer cell panel viability, ATPlite luminescence, 48 h; series mostly up to 57.5 µM
Records with an inconclusive call do not appear. Activity calls are given as the source filed them. The call rests on the fitted dose curve; in most records, active means well fitted cell-killing curve with a large enough effect; inconclusive means small, poorly fitted or top-dose-only effect, or effect the other way; inactive means flat fitted curve, though single readings scatter.

compound	test_target	activity change, negative = cytotoxicity
CCOC(=O)C(CCc1ccccc1)NC(C)C(=O)N1Cc2ccccc2CC1C(=O)O (stereo not drawn)	SKOV3	inactive
C[C@@]1(C(=O)O)CCC[C@@]2(C)C3=CC[C@H]4C[C@@]3(CC[C@H]12)CC4(O)CO (stereo partly drawn)	SKOV3	inactive
CC(=O)O[C@H]1[C@H](O[C@H]2CC[C@]34C[C@]35CC[C@]3(C)[C@@H]([C@@]6(C)CC[C@@H](C(C)(C)O)O6)[C@@H](O)C[C@@]3(C)[C@@H]5C[C@H](O[C@@H]3O[C@H](CO)[C@@H](O)[C@H](O)[C@H]3O)[C@H]4C2(C)C)OC[C@@H](OC(C)=O)[C@@H]1O	SKOV3	inactive
